# System: Human immunodeficiency virus 1
# procedure_text: Antiviral activity against HIV1 NL4-3 infected in human TZM-bl cells assessed as reduction in virus induced cytopathic effect measured after 2 days by luciferase gene expression assay
# Type: functional, organism-based
# condition: Human immunodeficiency virus 1, NL4-3, TZM-bl, 48 h
measured_attribute: pEC50
pEC50 field: float, defined as -log10 of concentration (mol/L).

[
  {
    "smiles_representation": "COc1ccc(N(C)C(=O)[C@H](Cc2ccccc2)NC(=O)Cn2cc(-c3ccccc3NC(=O)c3ccccc3F)nn2)cc1",
    "pEC50": 5.50
  }
]

// map Cc1[nH]c2ccccc2c1CC(=O)N[C@@H](Cc1ccccc1)C(=O)N(C)c1ccccc1 to recorded pEC50 (system: Human immunodeficiency virus 1)
6.55
